Recorded values, source patent US20250326840A1.

Give pKd for every item shown.
- target-entity: T1, QP096 (human SIRPα V2 ECD(E31-R370)-flag-his) (human)
- T1 construct: the construct carries flag and his tags; also called SIRPαV2-Flag-his; Human SIRPα V2 (QP096)
- T1 sequence (chain, as listed by the source limits assumed): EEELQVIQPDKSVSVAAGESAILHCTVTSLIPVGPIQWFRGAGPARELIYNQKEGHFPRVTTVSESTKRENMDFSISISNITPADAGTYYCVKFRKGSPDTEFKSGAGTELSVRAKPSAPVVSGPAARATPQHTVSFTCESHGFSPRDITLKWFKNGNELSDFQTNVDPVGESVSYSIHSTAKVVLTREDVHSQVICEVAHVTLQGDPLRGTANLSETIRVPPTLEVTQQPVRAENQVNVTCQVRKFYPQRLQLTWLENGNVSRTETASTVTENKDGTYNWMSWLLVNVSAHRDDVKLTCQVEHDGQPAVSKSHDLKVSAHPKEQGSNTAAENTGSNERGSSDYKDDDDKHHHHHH
- protocol-description: SPR, Biacore
Numbers only, as −log10 of the molar value.

Look over these answered cases.
binder	pKd
QP256279 (antibody, human IgG4, V domains shown, Human IgG4 heavy constant region and kappa CL) VH: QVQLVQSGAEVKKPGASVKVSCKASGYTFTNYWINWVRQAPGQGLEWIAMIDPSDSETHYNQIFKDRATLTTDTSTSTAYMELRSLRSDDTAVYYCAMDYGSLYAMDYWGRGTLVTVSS VL: DIVLTQSPDSLAVSLGERATINCRASQSVRSSGYNWIFWYQQKPGQPPKLLIYLASNRDSGVPDRFSGSGSGTDFTLTISSLQAEDVAVYYCQHSRELPTFGQGTKLEIK	10.35
QP2561581 (antibody, human IgG4, V domains shown, Human IgG4 heavy constant region and kappa CL) VH: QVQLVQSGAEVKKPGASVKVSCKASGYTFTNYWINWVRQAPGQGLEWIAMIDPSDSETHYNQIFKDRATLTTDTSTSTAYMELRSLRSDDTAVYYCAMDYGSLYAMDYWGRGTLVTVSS VL: DIVLTQSPDSLAVSLGERATINCRASKSVSSSGYNYIFWYQQKPGQPPKLLIYLASNLDPGVPDRFSGSGSGTDFTLTISSLQAEDVAVYYCQHSRELPTFGQGTKLEIK	9.75

// next entry
Recall and state the measured pKd for QP2561589 (antibody, human IgG4, V domains shown, Human IgG4 heavy constant region and kappa CL) VH: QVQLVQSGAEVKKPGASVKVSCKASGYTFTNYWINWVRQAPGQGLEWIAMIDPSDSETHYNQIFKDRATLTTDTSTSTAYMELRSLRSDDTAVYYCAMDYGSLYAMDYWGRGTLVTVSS VL: DIVLTQSPDSLAVSLGERATINCRASKSVSSSGYNYIFWYQQKPGQPPKLLIYLASNLDSGVPDRFSGSGSGTDFTLTISSLQAEDVAVYYCQESWELPTFGQGTKLEIK .
10.41
